Readings of half-life for the listed compounds
test details: Half life in Sprague-Dawley rat at 1 mg/kg, iv by LC-MS/MS analysis
Format: ADME, organism-based
setup conditions: in vivo
Expressed in h, but write only the number.

CCS(=O)(=O)Cc1cnc(Oc2ccc(F)cc2F)c(-c2cc(C)c3c(=O)[nH]ccn23)c1    1.3

Note: attention shifts to another entry.
Endpoint output: half-life of Cc1cc(-c2cc(CS(C)(=O)=O)cnc2Oc2ccc(F)cc2F)n2cc[nH]c(=O)c12 . Value?
0.8
